- Test system: adult mongrel dogs
- EXPERIMENT_NOTES: Renal vasodilating activity in anesthetized dogs
- Type: in vivo, dog (adult mongrel)
- TEST_CONDITIONS: Canis lupus familiaris; 6.2 mg/kg intravenous, relative to controls; read-out: RBF, renal blood flow
Under this convention, class 1 denotes change in vivo at 6.2 mg/kg strictly below 30% and class 0 denotes change in vivo at 6.2 mg/kg at or above 30%.

COMPOUND	SUBJECT_OF_TEST	ASSIGNED_LABEL
COc1cc2c(C)nc(O)c(NC(=O)Nc3ccc(C(F)(F)F)cc3)c2cc1OC [BAD]	adult mongrel dogs	class 0

Query string: Hello, I'm reviewing records and need to know if change in vivo at 6.2 mg/kg of Cc1nc(O)c([N+](=O)[O-])c2cc3c(cc12)OCO3 [Compound BB] is below 30%. Could you check?
Result string: class 1
